# Assayed Target: c-Met (Homo sapiens)
# Construct: Kinases are expressed as either kinase domains or full length constructs; made in house
# Run Description: Kinase inhibition assay (33P transfer), c-Met
# Format: biochemical
# Setup Conditions: Table 2, kinase inhibition class; read-out: Met-1
Measured Property: IC50

Before answering, review these 6 worked examples.
- Compound: "O=C(O)Cc1cccc(Nc2ncnc(Nc3cc(-c4ccccc4)n[nH]3)n2)c1 [Compound 981]"
  Assayed Target: "c-Met (Homo sapiens)"
  IC50: "< 1.03 µM"
- Compound: "COc1cc(Nc2ncnc(Nc3cc(C)c(O)cc3C)n2)cc(OC)c1OC [Compound 94]"
  Assayed Target: "c-Met (Homo sapiens)"
  IC50: "> 11.3 µM"
- Compound: "COc1cc(Nc2ncnc(Nc3ccc(NCc4ccccc4)cc3)n2)cc(OC)c1OC [Compound 93]"
  Assayed Target: "c-Met (Homo sapiens)"
  IC50: "> 9.81 µM"
- Compound: "COc1cc(Nc2ncnc(Nc3ccccn3)n2)cc(OC)c1OC [Compound 40]"
  Assayed Target: "c-Met (Homo sapiens)"
  IC50: "> 12.7 µM"
- Compound: "COc1cc(Nc2ncnc(N3CCCC4CCCCC43)n2)cc(OC)c1OC (stereo not drawn) [Compound 314]"
  Assayed Target: "c-Met (Homo sapiens)"
  IC50: "1 to 6.01 µM"
- Compound: "NC(=O)Cc1cccc(Nc2ncnc(-n3c(N)nc4ccccc43)n2)c1 [Compound 955]"
  Assayed Target: "c-Met (Homo sapiens)"
  IC50: "1.11 to 6.66 µM"

Query :: // map Oc1cccc(Nc2ncnc(Nc3ccc(OCc4ccccc4)cc3)n2)c1 [Compound 159] to recorded IC50 (system: c-Met (Homo sapiens))
Result :: 1.04 to 6.23 µM

Query :: // map COc1cc(Nc2ncnc(-n3c(N)nc4ccccc43)n2)ccc1OCCN1CCOCC1 [Compound 650] to recorded IC50 (system: c-Met (Homo sapiens))
Result :: 7.57 to 9.73 µM

Query :: // map COc1ccc(CCNc2ncnc(N3CCCc4cc(C)ccc43)n2)cc1OC [Compound 771] to recorded IC50 (system: c-Met (Homo sapiens))
Result :: > 11.1 µM

----------
Collected IC50 values appear next to each entry.
# Assayed Target: c-Met (Homo sapiens, UniProt P08581)
# Construct: Kinases are expressed as either kinase domains or full length constructs; made in house
# Sequence (P08581 25-1390): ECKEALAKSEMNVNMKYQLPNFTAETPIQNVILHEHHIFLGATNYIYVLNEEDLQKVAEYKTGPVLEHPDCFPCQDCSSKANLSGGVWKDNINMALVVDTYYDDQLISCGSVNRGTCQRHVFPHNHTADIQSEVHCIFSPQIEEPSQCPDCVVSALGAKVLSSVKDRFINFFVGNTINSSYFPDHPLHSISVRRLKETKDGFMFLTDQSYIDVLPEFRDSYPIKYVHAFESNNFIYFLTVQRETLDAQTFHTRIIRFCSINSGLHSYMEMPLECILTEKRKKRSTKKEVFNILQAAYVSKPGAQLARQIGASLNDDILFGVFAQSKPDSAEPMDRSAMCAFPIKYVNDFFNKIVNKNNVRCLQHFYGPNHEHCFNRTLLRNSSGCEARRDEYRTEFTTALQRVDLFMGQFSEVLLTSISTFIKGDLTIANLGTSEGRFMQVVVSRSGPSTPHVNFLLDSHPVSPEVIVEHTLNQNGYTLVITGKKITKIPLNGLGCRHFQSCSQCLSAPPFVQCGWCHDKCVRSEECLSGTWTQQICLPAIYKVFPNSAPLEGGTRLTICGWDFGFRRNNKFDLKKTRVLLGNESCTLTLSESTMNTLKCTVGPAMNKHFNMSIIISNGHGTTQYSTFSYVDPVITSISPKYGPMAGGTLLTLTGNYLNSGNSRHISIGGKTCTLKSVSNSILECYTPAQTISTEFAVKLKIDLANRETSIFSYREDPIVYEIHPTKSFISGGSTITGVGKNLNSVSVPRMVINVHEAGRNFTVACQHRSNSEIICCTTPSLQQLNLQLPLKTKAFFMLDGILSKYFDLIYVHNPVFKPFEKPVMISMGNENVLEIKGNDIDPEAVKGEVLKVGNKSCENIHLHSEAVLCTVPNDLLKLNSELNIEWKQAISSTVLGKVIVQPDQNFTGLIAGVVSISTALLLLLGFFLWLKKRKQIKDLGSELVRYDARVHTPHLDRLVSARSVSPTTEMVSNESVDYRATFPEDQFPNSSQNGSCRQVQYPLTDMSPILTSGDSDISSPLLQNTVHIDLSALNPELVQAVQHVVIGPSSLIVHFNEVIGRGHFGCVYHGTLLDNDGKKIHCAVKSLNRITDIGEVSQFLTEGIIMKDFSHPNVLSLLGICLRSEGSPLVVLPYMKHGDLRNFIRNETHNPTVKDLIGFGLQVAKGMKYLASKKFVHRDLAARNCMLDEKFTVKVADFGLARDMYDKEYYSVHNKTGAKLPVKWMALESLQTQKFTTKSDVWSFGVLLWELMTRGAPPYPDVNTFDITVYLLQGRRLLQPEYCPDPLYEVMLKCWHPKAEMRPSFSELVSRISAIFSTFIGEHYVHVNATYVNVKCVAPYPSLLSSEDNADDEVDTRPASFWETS
# Run Description: Kinase inhibition assay (33P transfer), c-Met
# Type: biochemical
# Setup Conditions: Table 2, kinase inhibition class; read-out: Met-1

Query :: Quick one: IC50 for Oc1cccc(Nc2ncnc(-c3ccccc3)n2)c1 ?
Result :: > 17 µM

Query :: Quick one: IC50 for FC(F)(F)c1ccc(Cl)c(Nc2ncnc(-n3cccc3)n2)c1 ?
Result :: > 13.2 µM

Query :: Quick one: IC50 for Cc1ccc2c(c1)CCCN2c1ncnc(NCc2ccccn2)n1 ?
Result :: > 13.5 µM

Query :: Quick one: IC50 for CCCN(CC1CC1)c1ncnc(Nc2cc(OC)c(OC)c(OC)c2)n1 ?
Result :: 1.07 to 6.43 µM

Query :: Quick one: IC50 for CN(C)c1ccc(Nc2ncnc(-n3c(N)nc4ccccc43)n2)cc1 ?
Result :: 1.15 to 6.93 µM

Query :: Quick one: IC50 for COc1cc(Nc2ncnc(-n3c(NCc4ccc(Cl)cc4F)nc4ccccc43)n2)cc(OC)c1OC ?
Result :: > 8.4 µM

Query :: Quick one: IC50 for COc1cc(Nc2ncnc(Nc3ccc(OCC(=O)Nc4ccccc4)cc3)n2)cc(OC)c1OC ?
Result :: 6.96 to 8.95 µM

Query :: Quick one: IC50 for COc1cc(Nc2ncnc(-n3c(Nc4cccc5cccnc45)nc4ccccc43)n2)cc(OC)c1OC ?
Result :: > 8.64 µM

Query :: Quick one: IC50 for COc1cc(Nc2ncnc(-n3c(NCc4ccc(Br)cc4)nc4ccccc43)n2)cc(OC)c1OC ?
Result :: > 8 µM

Query :: Quick one: IC50 for COc1ccc([C@@H](C)Nc2nc3ccccc3n2-c2ncnc(Nc3cc(OC)c(OC)c(OC)c3)n2)cc1 ?
Result :: > 8.53 µM

Query :: Quick one: IC50 for COc1cc(Nc2ncnc(-n3c(NCc4ccc(Cl)cc4)nc4ccccc43)n2)cc(OC)c1OC ?
Result :: > 8.69 µM

----------
# Assayed Target: Kdr (Homo sapiens)
# Construct: Kinases are expressed as either kinase domains or full length constructs; made in house
# Sequence (P35968 20-1356, species assumed): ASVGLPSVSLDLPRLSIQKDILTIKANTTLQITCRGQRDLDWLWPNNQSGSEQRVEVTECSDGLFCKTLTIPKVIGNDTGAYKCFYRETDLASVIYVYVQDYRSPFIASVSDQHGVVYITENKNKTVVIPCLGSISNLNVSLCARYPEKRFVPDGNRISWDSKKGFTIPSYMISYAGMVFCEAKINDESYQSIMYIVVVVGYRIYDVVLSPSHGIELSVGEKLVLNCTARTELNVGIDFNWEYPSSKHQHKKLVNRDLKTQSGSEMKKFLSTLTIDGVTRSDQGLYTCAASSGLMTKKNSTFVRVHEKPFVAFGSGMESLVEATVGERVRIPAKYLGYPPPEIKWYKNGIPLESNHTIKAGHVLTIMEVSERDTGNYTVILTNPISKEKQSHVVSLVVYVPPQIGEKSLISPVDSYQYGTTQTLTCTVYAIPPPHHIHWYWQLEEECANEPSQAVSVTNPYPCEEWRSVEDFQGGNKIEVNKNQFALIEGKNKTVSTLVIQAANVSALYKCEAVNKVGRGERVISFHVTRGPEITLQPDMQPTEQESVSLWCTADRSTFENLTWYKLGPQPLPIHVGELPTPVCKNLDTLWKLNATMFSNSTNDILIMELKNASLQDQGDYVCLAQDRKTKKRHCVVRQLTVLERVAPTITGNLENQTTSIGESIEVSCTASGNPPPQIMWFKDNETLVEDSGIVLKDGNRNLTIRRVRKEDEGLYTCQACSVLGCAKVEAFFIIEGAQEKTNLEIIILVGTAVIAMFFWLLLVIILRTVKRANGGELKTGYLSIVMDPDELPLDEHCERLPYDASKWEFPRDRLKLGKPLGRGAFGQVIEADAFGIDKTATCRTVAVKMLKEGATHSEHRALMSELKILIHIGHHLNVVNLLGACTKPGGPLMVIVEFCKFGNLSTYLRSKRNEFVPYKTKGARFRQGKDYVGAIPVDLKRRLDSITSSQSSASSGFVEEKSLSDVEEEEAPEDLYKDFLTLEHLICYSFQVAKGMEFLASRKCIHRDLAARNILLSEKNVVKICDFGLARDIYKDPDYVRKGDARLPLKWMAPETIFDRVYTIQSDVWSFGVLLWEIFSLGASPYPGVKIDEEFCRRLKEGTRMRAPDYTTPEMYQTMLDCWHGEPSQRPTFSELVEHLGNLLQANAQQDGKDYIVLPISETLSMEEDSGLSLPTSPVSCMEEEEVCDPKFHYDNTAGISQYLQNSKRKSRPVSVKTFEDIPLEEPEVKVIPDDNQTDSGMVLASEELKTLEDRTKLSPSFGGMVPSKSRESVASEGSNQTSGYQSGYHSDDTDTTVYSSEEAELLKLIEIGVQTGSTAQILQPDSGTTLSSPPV
# Run Description: Kinase inhibition assay (33P transfer), Kdr
# Type: biochemical
# Setup Conditions: Table 3; read-out: KDR-1
Measured Property: IC50

Before answering, review these 6 worked examples.
- Molecule: "c1csc(-c2ncnc(Nc3ccc4c(c3)OCO4)n2)c1 [Compound 1072]"
  Assayed Target: "Kdr (Homo sapiens)"
  IC50: "8.04 to 11.7 µM"
- Molecule: "CCOc1ccc(Nc2ncnc(Nc3ccc(C)c(O)c3)n2)cc1OCC [Compound 121]"
  Assayed Target: "Kdr (Homo sapiens)"
  IC50: "< 1.05 µM"
- Molecule: "COc1cc(Nc2ncnc(-c3ccnc(NCCCO)c3)n2)cc(OC)c1OC [Compound 180]"
  Assayed Target: "Kdr (Homo sapiens)"
  IC50: "0.97 to 5.82 µM"
- Molecule: "Cc1ccc(Nc2ncnc(-n3cccc3)n2)cc1Cl [Compound 276]"
  Assayed Target: "Kdr (Homo sapiens)"
  IC50: "1.4 to 8.4 µM"
- Molecule: "COc1cc(Nc2ncnc(Nc3ccccc3C)n2)cc(OC)c1OC [Compound 67]"
  Assayed Target: "Kdr (Homo sapiens)"
  IC50: "1.09 to 6.53 µM"
- Molecule: "COc1cc(Nc2ncnc(Nc3ccccc3F)n2)cc(OC)c1OC [Compound 65]"
  Assayed Target: "Kdr (Homo sapiens)"
  IC50: "1.08 to 6.46 µM"

Query :: Quick one: IC50 for COCCOc1ccc(Nc2ncnc(Nc3ccc(C)c(F)c3)n2)cc1OCCOC [Compound 322] ?
Result :: 0.902 to 5.41 µM

Query :: Quick one: IC50 for Cc1cc(Br)ccc1Nc1ncnc(-n2cccc2)n1 [Compound 282] ?
Result :: > 13.6 µM

Query :: Quick one: IC50 for COc1ccc(Nc2ncnc(Nc3cc(OC)c(OC)c(OC)c3)n2)cc1O [Compound 931] ?
Result :: < 1 µM

----------
Collected IC50 values appear next to each entry.
# Assayed Target: Zap-70 (Homo sapiens)
# Construct: Kinases are expressed as either kinase domains or full length constructs; made in house
# Sequence (P43403 whole entry, species assumed, the tested form may be a part): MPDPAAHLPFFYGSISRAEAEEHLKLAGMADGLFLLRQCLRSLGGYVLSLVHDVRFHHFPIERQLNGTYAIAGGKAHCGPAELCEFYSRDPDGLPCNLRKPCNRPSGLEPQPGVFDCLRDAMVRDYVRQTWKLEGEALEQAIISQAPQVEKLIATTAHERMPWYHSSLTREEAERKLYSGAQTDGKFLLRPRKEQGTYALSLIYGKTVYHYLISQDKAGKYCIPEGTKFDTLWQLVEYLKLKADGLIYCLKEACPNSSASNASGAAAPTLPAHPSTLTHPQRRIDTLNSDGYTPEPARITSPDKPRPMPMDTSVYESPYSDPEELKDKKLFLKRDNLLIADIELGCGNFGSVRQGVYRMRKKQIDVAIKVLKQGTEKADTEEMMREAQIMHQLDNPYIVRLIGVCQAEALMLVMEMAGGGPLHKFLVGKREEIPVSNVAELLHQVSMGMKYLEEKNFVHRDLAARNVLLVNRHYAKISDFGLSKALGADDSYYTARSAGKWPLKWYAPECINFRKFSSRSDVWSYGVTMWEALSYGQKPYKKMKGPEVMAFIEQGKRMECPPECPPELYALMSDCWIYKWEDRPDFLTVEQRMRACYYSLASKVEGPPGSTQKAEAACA
# Run Description: Kinase inhibition assay (33P transfer), Zap-70
# Assay type: biochemical
# Setup Conditions: Table 3, class symbols; read-out: Zap-1
# Text: The inhibitor compounds described herein are screened in the following manner. […] Kinases are expressed as either kinase domains or full length constructs fused to glutathione S-transferase (GST) or polyHistidine tagged fusion proteins in either E. colior Baculovirus-High Five expression systems. […]

Before answering, review these 6 worked examples.
- Molecule: "c1ccc(Cn2ncc3cc(Nc4ncnc(NCCN5CCCC5)n4)ccc32)cc1"
  IC50: "> 10.9 µM"
- Molecule: "COC(=O)c1ccc(-c2cc(Nc3ncnc(Nc4cccc(Cc5nnn[nH]5)c4)n3)[nH]n2)cc1"
  IC50: "7.46 to 9.59 µM"
- Molecule: "COc1cc(Nc2ncnc(N3CCCc4c(Cl)cccc43)n2)cc(OC)c1OC"
  IC50: "> 10.5 µM"
- Molecule: "COc1ccc(CNc2nc3ccccc3n2-c2ncnc(Nc3cccc(C(=O)O)c3)n2)cc1"
  IC50: "> 9.63 µM"
- Molecule: "COc1cc(Nc2ncnc(Nc3cccc(Cl)c3)n2)cc(OC)c1"
  IC50: "1.12 to 6.71 µM"
- Molecule: "COc1cc(Nc2ncnc(-c3cccnc3Nc3cccc(C#N)c3)n2)cc(OC)c1OC"
  IC50: "> 9.88 µM"

Query :: Quick one: IC50 for O=C(O)Cc1cccc(Nc2ncnc(-c3cccnc3NCc3ccc(F)cc3)n2)c1 ?
Result :: > 10.5 µM

Query :: Quick one: IC50 for COc1cc(Nc2ncnc(-c3cccnc3NC(C)c3ccccc3)n2)cc(OC)c1OC (centres unmarked) ?
Result :: > 9.81 µM

----------
# Assayed Target: Kdr (Homo sapiens)
# Construct: Kinases are expressed as either kinase domains or full length constructs; made in house
# Run Description: Kinase inhibition assay (33P transfer), Kdr
# Format: biochemical
# Setup Conditions: read-out: KDR-1
Measured Property: IC50

Query :: Quick one: IC50 for COc1cc(Nc2ncnc(-c3ccc(NCc4ccccc4)nc3)n2)cc(OC)c1OC ?
Result :: > 10.1 µM

Query :: Quick one: IC50 for CCN(CC)CCOc1ccc(Nc2ncnc(Nc3cc(OC)c(OC)c(OC)c3)n2)cc1OC ?
Result :: 7.02 to 9.03 µM

Query :: Quick one: IC50 for N#Cc1ccc(Nc2ncnc(-n3c(=O)[nH]c4ccccc43)n2)cc1 ?
Result :: 1.21 to 7.29 µM

Query :: Quick one: IC50 for CCN(CC)c1ccc(Nc2ncnc(N3CCCc4cc(C)ccc43)n2)cc1 ?
Result :: > 11.6 µM
